# System: S. cerevisiae Mot1-301 ts growth rescue, BacTiter-Glo ATP luminescence
# protocol: restored Mot1-301 yeast growth at 38.5C – whole organism, S. cerevisiae, Mot1-301 ts mutant, luminescence, dose retest, SUMOylation pathway inhibitor project, confirmation (AID 463204);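 also: growth at restrictive 38.5 degrees C of Mot1-301 OY566 strain; actives raise luminescence by restoring growth of the ts mutant at high temperature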
Calls of active or inactive are those of the source.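 The calls were made as follows: active = AC50 no more than ten times the top concentration tested, that is within one log above it; inconclusive = flat curve fit with activity between 30% and 70%, or invalid poor fit; inactive = AC50 beyond ten times the top tested dose.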
Outcome codes: True = active, False = inactive

| compound | assay_system | group |
| --- | --- | --- |
| CN(CC(=O)Nc1sccc1C#N)Cc1ccccc1 | S. cerevisiae Mot1-301 ts growth rescue, BacTiter-Glo ATP luminescence | False |
| CCOC(=O)C1CCCN(C(=O)/C=C/c2ccc(Cl)cc2)C1 (centres undefined) | S. cerevisiae Mot1-301 ts growth rescue, BacTiter-Glo ATP luminescence | False |
| CC(C)C[C@@H](CO)N1CCN(Cc2cccnc2)CCC1=O | S. cerevisiae Mot1-301 ts growth rescue, BacTiter-Glo ATP luminescence | False |
| COCCCN1C(=O)c2ccc(C(=O)Nc3ccc(OC)cc3OC)cc2C1=O | S. cerevisiae Mot1-301 ts growth rescue, BacTiter-Glo ATP luminescence | False |
| COCCn1c(-c2ccc(Cl)cc2)cnc1SCC(=O)NCCc1ccc(OC)c(OC)c1 | S. cerevisiae Mot1-301 ts growth rescue, BacTiter-Glo ATP luminescence | False |
| CCOc1ccc(C(=O)NCC2OCCc3ccccc32)cc1 (centres undefined) | S. cerevisiae Mot1-301 ts growth rescue, BacTiter-Glo ATP luminescence | False |
| CC1(C)Cc2c(cnn2-c2ccc(F)cc2)C(NC(=O)CCCN2CCCCC2=O)C1 (centres undefined) | S. cerevisiae Mot1-301 ts growth rescue, BacTiter-Glo ATP luminescence | False |
| O=C(CCC(F)(F)F)N1CCCC(CO)(CCc2ccccc2)C1 (centres undefined) | S. cerevisiae Mot1-301 ts growth rescue, BacTiter-Glo ATP luminescence | False |
| COc1ccccc1C1NC(=O)CS1 (centres undefined) | S. cerevisiae Mot1-301 ts growth rescue, BacTiter-Glo ATP luminescence | False |
| Nc1nc2ccccc2cc1-c1cccs1 | S. cerevisiae Mot1-301 ts growth rescue, BacTiter-Glo ATP luminescence | False |
| COc1ccc(NC(=O)Nc2ccccc2C(=O)N2CCCC2)cc1 | S. cerevisiae Mot1-301 ts growth rescue, BacTiter-Glo ATP luminescence | False |
| CCOC(=O)c1ccccc1NC(=O)C1CC(=O)N(C2CCCCC2)C1 (centres undefined) | S. cerevisiae Mot1-301 ts growth rescue, BacTiter-Glo ATP luminescence | False |
| Cc1cccc(OCCC(=O)Nc2ccc(F)c(F)c2)c1 | S. cerevisiae Mot1-301 ts growth rescue, BacTiter-Glo ATP luminescence | False |
| Cc1ccc(-c2cc(C(=O)O)c3ccccc3n2)s1 | S. cerevisiae Mot1-301 ts growth rescue, BacTiter-Glo ATP luminescence | False |
| O=C(CCC(=O)OCC(=O)c1ccc(Br)cc1)Nc1cccc2cccnc12 | S. cerevisiae Mot1-301 ts growth rescue, BacTiter-Glo ATP luminescence | False |
| CN(C)C(CNC(=O)CNC(=O)c1ccc(Br)cc1)c1ccccc1 (centres undefined) | S. cerevisiae Mot1-301 ts growth rescue, BacTiter-Glo ATP luminescence | False |
| CC(C)NC(=O)NC(=O)COC(=O)CCCSc1nc2ccccc2s1 | S. cerevisiae Mot1-301 ts growth rescue, BacTiter-Glo ATP luminescence | False |
| Cc1ccc(C(=O)O)cc1N=Cc1cc(Br)cc(Br)c1O | S. cerevisiae Mot1-301 ts growth rescue, BacTiter-Glo ATP luminescence | True |
| O=C(Cc1ccccc1)N1CCCC1c1ccccc1 (centres undefined) | S. cerevisiae Mot1-301 ts growth rescue, BacTiter-Glo ATP luminescence | False |
| O=c1nc(-c2ccccc2)cn[nH]1 | S. cerevisiae Mot1-301 ts growth rescue, BacTiter-Glo ATP luminescence | False |
| C(=N\N1CCN(C2c3ccccc3-c3ccccc32)CC1)/c1ccncc1 | S. cerevisiae Mot1-301 ts growth rescue, BacTiter-Glo ATP luminescence | True |
| COc1ccc2c(c1)[C@H]1[C@H](CO2)[C@H](c2ccccc2)[C@]2(C)C(=O)Nc3ccc(Br)cc3C(=O)N12 | S. cerevisiae Mot1-301 ts growth rescue, BacTiter-Glo ATP luminescence | True |
| COC(=O)[C@@H](NC(=O)Nc1ccc(S(N)(=O)=O)cc1)C(C)C | S. cerevisiae Mot1-301 ts growth rescue, BacTiter-Glo ATP luminescence | False |
| CCOC(=O)Cn1c(=O)oc2cc(S(=O)(=O)NC(C)(C)CC)ccc21 | S. cerevisiae Mot1-301 ts growth rescue, BacTiter-Glo ATP luminescence | False |
